settings: in acetonitrile, 303.15 K
observed_property: solubility (mole fraction)
Give the value as a plain number.

Task item: Fill in: solubility (mole fraction) of N#Cc1c(Cl)c(Cl)c(Cl)c(C#N)c1Cl is ___
Reply: 0.00228

---

settings: in ethyl acetate, 298.15 K
observed_property: solubility (mole fraction)
Give the value as a plain number.

Task item: Fill in: solubility (mole fraction) of N#Cc1c(Cl)c(Cl)c(Cl)c(C#N)c1Cl is ___
Reply: 0.00435

---

settings: in DMF, 288.15 K
observed_property: solubility (mole fraction)
Give the value as a plain number.

Task item: Fill in: solubility (mole fraction) of N#Cc1c(Cl)c(Cl)c(Cl)c(C#N)c1Cl is ___
Reply: 0.00992

# credit: BigSolDB 2.1
